Cited source: patent US4122204A

assay: in vivo; conditions: rat, in vivo, po, LD50 value (mammalian toxicity), peroral; unit inferred
readout_label: LD50 (mg/kg)
Give the value in mg/kg but do not write mg/kg after it.

Cc1ccc(SSN(C)C(=O)Oc2cccc3c2OC(C)(C)C3)cc1 [Compound 2] : 20

Here is the next item to consider.
QUERY: Respond only with LD50 recorded for CN(SSc1ccc(C(C)(C)C)cc1)C(=O)Oc1cccc2c1OC(C)(C)C2 [Compound 3]
RESULT: 453

----------
Listed here: items and their measured LD50.
assay: in vivo; conditions: rat, in vivo, po, Rat LD50, peroral; dose for mortality rate of 50 percent
Give the value in mg/kg but do not write mg/kg after it.

Cc1ccc(SSN(C)C(=O)Oc2cccc3c2OC(C)(C)C3)cc1 : 20
CC(C)Oc1ccccc1OC(=O)N(C)SSc1ccc(C(C)(C)C)cc1 : 640

Here is the next item to consider.
QUERY: Respond only with LD50 recorded for CN(SSc1ccc(C(C)(C)C)cc1)C(=O)Oc1cccc2c1OC(C)(C)C2
RESULT: 453
